- study-system: human A2A adenosine receptor (Homo sapiens, UniProt P29274)
- Construct: expressed in transfected cells; host or cells: HEK293 or CHO cells
- Sequence (P29274 whole entry): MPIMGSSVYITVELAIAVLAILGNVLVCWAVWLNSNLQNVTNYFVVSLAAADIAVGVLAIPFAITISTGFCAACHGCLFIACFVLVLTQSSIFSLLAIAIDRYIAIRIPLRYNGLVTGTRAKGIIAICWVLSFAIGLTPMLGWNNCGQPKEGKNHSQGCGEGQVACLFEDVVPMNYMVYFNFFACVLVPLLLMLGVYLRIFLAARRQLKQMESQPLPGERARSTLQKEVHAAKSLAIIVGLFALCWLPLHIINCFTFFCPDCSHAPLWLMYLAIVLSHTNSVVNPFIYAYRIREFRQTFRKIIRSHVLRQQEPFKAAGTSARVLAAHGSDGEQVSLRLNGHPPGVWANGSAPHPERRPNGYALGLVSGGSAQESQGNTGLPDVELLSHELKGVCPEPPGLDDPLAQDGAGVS
- measurement-protocol: A2A binding affinity, Method (B): scintillation proximity assay (SPA) with [3H]SCH58261
- measurement-parameters: membranes of HEK293 or CHO cells expressing the human receptor
pIC50: −log10 of the molar value.
Label YES for high-side pIC50 (at or above 8) and NO for low-side pIC50 (below it).

[[record]]
molecule = "COc1cccc2c1nc(N)n1nc(CNCc3ccccc3C(F)(F)F)nc21 [Example 8.4]"
class_assignment = "YES"


Q: Check if pIC50 >= 8 (inclusive). Item: COc1cccc2c1nc(N)n1nc(CNC(C)(C)c3ccccn3)nc21 [Example 7.3]
Result: NO

Q: Form field: pIC50 at least 8? Entry: COc1cccc2c1nc(N)n1nc(CN(C)c3cccnc3Br)nc21 [Example 10.3]
Result: NO

Q: Evaluate COc1cccc2c1nc(N)n1nc(CN(Cc3ccc(C(F)(F)F)cc3)S(=O)(=O)C3CC3)nc21 [Example 19.5] : pIC50 at minimum 8?
Result: NO

Q: Item COc1cccc2c1nc(N)n1nc(CN(Cc3ccc(C(F)(F)F)cc3)C[C@@H]3CO3)nc21 [Example 18.1] with pIC50 of 8 or above?
Result: NO

Q: Does the reported pIC50 for COc1cccc2c1nc(N)n1nc(CN(C)c3cccc(Br)n3)nc21 [Example 10.11] fall at or above the 8 mark?
Result: YES
